- System: BHK-21 cells
- test.description: Cytotoxicity CC100 in BHK-21 cells (6 days)
Overview of recorded CC100 (100% cytotoxic concentration) for various compounds
value.type: CC100 (100% cytotoxic concentration) (µg/mL)

compound	value.qualifier	measured.number
COC(=O)[C@]1(C)CCC[C@]2(C)c3cc(O)c(C(C)C)cc3C(=O)C[C@@H]12 [Compound 22a]	=	25
CC(C)c1cc2c(cc1O)[C@@]1(C)CCC[C@@](C)(CN3C(=O)c4ccccc4C3=O)[C@@H]1CC2 [Compound 6, 18-(phthalimid-2-yl)ferruginol]	>	50
CC(C)c1cc2c(cc1O)[C@@]1(C)CCC[C@@](C)(C(=O)O)[C@@H]1CC2=O [Compound 23a, liquiditerpenoic acid A]	=	50
CC(C)c1cc2c(cc1O)[C@@]1(C)CCC[C@](C)(CO)[C@@H]1CC2 [Compound 20b, 19-hydroxyferruginol]	=	12.5
COC(=O)[C@]1(C)CCC[C@]2(C)c3cc(OC(C)=O)c(C(C)C)cc3C(=O)C[C@@H]12 [Compound 17a]	=	25
CC(C)c1ccc2c(c1)CC[C@H]1C(C)(CO)CCC[C@]21C (stereo partly shown) [Compound 14]	>	50
COC(=O)[C@]1(C)CCC[C@]2(C)c3ccc(C(C)C)cc3CC[C@@H]12 [Compound 12, methyl dehydroabietate]	=	50

###

- Tested on: Colombian Zika virus strains
- test.description: Anti-Zika EC50 summarised over Colombian strains (abstract)
- Format: cell-based
- reported.conditions: read-out: EC50 against Colombian Zika virus strains
pEC50: −log10 of the molar value.
value.type: pEC50

input.smiles	result
CC(C)c1cc2c(cc1O)[C@@]1(C)CCC[C@@](C)(CN3C(=O)c4ccccc4C3=O)[C@@H]1CC2	5.00 to 5.30

###

- Test system: endemic chikungunya virus of Colombian origin
- test.description: Post-infection stage evaluation assay (plaque), CHIKV
- reported.conditions: Chikungunya virus, read-out: EC50 chikungunya virus
value.type: EC50

input.smiles	result
CC(C)c1cc2c(cc1O)[C@@]1(C)CCC[C@@](C)(CN3C(=O)c4ccccc4C3=O)[C@@H]1CC2	9.8 µM

###

- test.description: MTT cytotoxicity assay (CC50)
- reported.conditions: chlorocebus sabaeus
value.type: CC50 at 72 h (µM)

input.smiles	value.type	measured.number
CC(C)c1cc2c(cc1O)[C@@]1(C)CCC[C@@](C)(CN3C(=O)c4ccccc4C3=O)[C@@H]1CC2	CC50 at 72 h	192

###

Overview of recorded Rf (reduction factor of the viral titer) for various compounds
- Test system: CHIKV (Chikungunya virus)
- test.description: End-point titration technique (EPTT), viral titer reduction factor, CHIKV in Vero E6
- Type: cell-based
- reported.conditions: Vero E6, 10TCID50, EPTT
value.type: Rf (reduction factor of the viral titer)

compound	value.type	result
CC(C)c1cc2c(cc1O)[C@@]1(C)CCC[C@](C)(CO)[C@@H]1CC2 [Compound 20b, 19-hydroxyferruginol]	Rf (reduction factor of the viral titer)	10^2
CC(C)c1ccc2c(c1)CC[C@H]1C(C)(CO)CCC[C@]21C (stereo partly drawn) [Compound 14]	Rf (reduction factor of the viral titer)	10^2
COC(=O)[C@]1(C)CCC[C@]2(C)c3ccc(C(C)C)c(O)c3CC[C@@H]12 [Compound 24, methyl 14-hydroxy-dehydroabietate]	Rf (reduction factor of the viral titer)	10^2
CC(C)c1cc2c(cc1O)[C@@]1(C)CCC[C@@](C)(CN3C(=O)c4ccccc4C3=O)[C@@H]1CC2 [Compound 6, 18-(phthalimid-2-yl)ferruginol]	Rf (reduction factor of the viral titer)	10^2
COC(=O)[C@]1(C)CCC[C@]2(C)c3cc(OC(C)=O)c(C(C)C)cc3CC[C@@H]12 [Compound 16a]	Rf (reduction factor of the viral titer)	10^2
CC(C)c1cc2c(cc1O)[C@@]1(C)CCCC(C)(C)[C@@H]1CC2 [Compound 5, (+)-ferruginol]	Rf (reduction factor of the viral titer)	10^2
CC(C)c1cc2c(cc1O)[C@@]1(C)CCC[C@@](C)(CO)[C@@H]1CC2=O [Compound 21a]	Rf (reduction factor of the viral titer)	10^2
COC(=O)[C@@]1(C)CCC[C@]2(C)c3cc(O)c(C(C)C)cc3CC[C@@H]12 [Compound 18b]	Rf (reduction factor of the viral titer)	10^2
CC(C)c1cc2c(cc1O)[C@@]1(C)CCC[C@@](C)(CO)[C@@H]1CC2 [Compound 20a, 18-hydroxyferruginol]	Rf (reduction factor of the viral titer)	10^2
